Tested on: HT29 colon
Assay: NCI-60 one-dose screen, 48 h (100 = growth as untreated, 0 = no growth, -100 = all killed)
Conditions: 10 µM unless noted
This is part of a sample that, as a whole, favours compounds with a hit. Of some 83,000 tested, about 20% had one in any assay. The source made the active and inactive calls. The calls were made as follows: active = growth percent below 10; inactive = the rest.
measurement-kind: growth

# example entries with known answers
molecule	assayed-target	growth
O=C(CCc1ccco1)NC1CCN(CC2(c3ccc(Cl)cc3)CCC2)CC1	HT29 colon	10.5% (inactive)
CC(C)(NC(=O)c1nn(CCCCCF)c2ccccc12)c1ccccc1	HT29 colon	81.9% (inactive)

## Task Fill in the blank: the reported growth of O=C(Nc1ccc(S(=O)(=O)F)cc1)Oc1ccccc1 is ____.
## Result 102% (inactive)

## Task Fill in the blank: the reported growth of COC(=O)C[Se]C(=O)c1ccccc1OC(C)=O is ____.
## Result 33.2% (inactive)

## Task Fill in the blank: the reported growth of C/C(=C\C(=O)O[C@H]1[C@@H]2[C@H](C)CC[C@H]2[C@]2(C)O[C@@]1(C1CCCCC1)C[C@H]2OC(=O)CO)c1ccccc1 is ____.
## Result 9.35% (active)

## Task Fill in the blank: the reported growth of CCOCC1(CCc2ccccc2)C(=O)NC(=S)NC1=O is ____.
## Result 108% (inactive)

###

Test system: MALME-3M melanoma
Assay: NCI-60 one-dose screen, 48 h
Conditions: 10 µM unless noted
About 83,000 compounds went through this panel and 20% of them were active in at least one assay; those are over-represented in the sample as a whole. Active and inactive are the calls of the source. The calls were made as follows: active = growth percent below 10; inactive = the rest.
Outcome (select one): active, inactive

compound	class-label
O=C1NC2(CCNCC2)Nc2ccccc21	inactive
COc1cc(C2CC(=O)Nc3nc(N)[se]c32)cc(OC)c1OC (configuration not stated)	inactive
Cc1cc(NC(=O)CCc2ccc(N3C(N)=NC(N)=NC3(C)C)cc2)ccc1S(=O)(=O)F	inactive
CCC1CN1P(=O)(OCCOC)N1CC1CC (configuration not stated)	inactive
Cc1cc([N+](=O)[O-])c(Cl)cc1NS(=O)(=O)c1ccccc1	inactive

## Task For this compound, state the assay outcome: Clc1ccc(SSC(Cl)(Cl)Cl)cc1
## Result inactive

## Task For this compound, state the assay outcome: CC1(C)N=C(N)N=C(N)N1c1cccc(C(=O)Nc2cccc(S(=O)(=O)F)c2)c1
## Result inactive

## Task For this compound, state the assay outcome: COc1cccc2c1C(=O)c1c(O)c3c(c(O)c1C2=O)CC(O)(/C(C)=N/NC(=O)CCC(=O)N/N=C(\C)C1(O)Cc2c(O)c4c(c(O)c2C(OC2CC(N)C(O)C(C)O2)C1)C(=O)c1c(OC)cccc1C4=O)CC3OC1CC(N)C(O)C(C)O1 (configuration not stated)
## Result active

## Task For this compound, state the assay outcome: O=CN1N=C(c2ccccc2)CC1c1sc(N(CCCl)CCCl)nc1Cl (configuration not stated)
## Result inactive

## Task For this compound, state the assay outcome: COc1c(O)c2c3c(c1OC)-c1ccccc1CC3N(C)CC2 (configuration not stated)
## Result inactive

## Task For this compound, state the assay outcome: CC(C)[C@]12O[C@H]1[C@@H]1O[C@]13[C@]1(O[C@H]1C[C@H]1C4=C(CC[C@@]13C)C(=O)OC4)[C@@H]2OC(=O)OC(C)(C)C
## Result active

## Task For this compound, state the assay outcome: O=C(N/N=C/c1ccc([N+](=O)[O-])o1)c1cc([N+](=O)[O-])cc([N+](=O)[O-])c1O
## Result inactive

## Task For this compound, state the assay outcome: O=S(=O)(c1ccc(Cl)cc1)C(Cl)(Cl)Cl
## Result active

## Task For this compound, state the assay outcome: CC(=O)Oc1ccc(Cl)cc1
## Result inactive

## Task For this compound, state the assay outcome: CCOC(=O)/C(C#N)=C/c1ccc(N(CCCl)CCCl)cc1
## Result inactive

## Task For this compound, state the assay outcome: O=C(CI)Nc1ccc(Br)cc1
## Result active

## Task For this compound, state the assay outcome: n1nc(-c2nonc2-c2nn[nH]n2)n[nH]1
## Result inactive

## Task For this compound, state the assay outcome: CC(C)(C)N(Cc1ccccc1)N=O
## Result inactive

## Task For this compound, state the assay outcome: COP(=S)(OC)Oc1ccc(SC)c(C)c1
## Result inactive

## Task For this compound, state the assay outcome: C/C(=N/OC(=O)N(C)C)c1cc(Cl)ccc1Cl
## Result inactive

## Task For this compound, state the assay outcome: Cc1ccc2oc(=O)c3c(c2c1)OC(N)=C(C#N)C3c1ccco1 (configuration not stated)
## Result inactive

## Task For this compound, state the assay outcome: NC(=O)OCC(CO)(c1ccccc1)c1ccccc1
## Result inactive

###

System: HL-60(TB) leukemia
Assay: NCI-60 one-dose screen, 48 h
Conditions: 10 µM unless noted
The panel holds about 83,000 compounds, 20% with a hit somewhere; the sample as a whole holds those more often. Activity calls are given as the source filed them. Rule for the calls: active = growth percent below 10; inactive = the rest.
Outcome (select one): yes (1) = active, no (0) = inactive

compound	assayed-target	class-label
CN(C)C(=O)OCc1nc2c(N3CCOCC3)nc(-c3ccccc3)nc2n1C	HL-60(TB) leukemia	yes (1)
CC1(C)S[C@@H]2[C@H](NC(=O)[C@H](C(=O)O)c3cccs3)C(=O)N2[C@H]1C(=O)O	HL-60(TB) leukemia	no (0)
Fc1ccc2[nH]cc(-c3nc(-c4c[nH]c5ccncc45)cs3)c2c1	HL-60(TB) leukemia	yes (1)
C=C(C)[C@@H]1CC[C@]2(COC3CCCCO3)CC[C@]3(C)[C@H](CC[C@@H]4[C@@]5(C)C=C(C=O)C(=O)C(C)(C)[C@@H]5CC[C@]43C)[C@@H]12 (stereo partly specified)	HL-60(TB) leukemia	yes (1)
CN1CCN(c2ccc3c(c2)nc(NNC(=O)c2cnccn2)c2cccn23)CC1	HL-60(TB) leukemia	yes (1)

## Task For this compound, state the assay outcome: COc1ccc(-c2c(-c3ccccc3)noc2N)cc1OC
## Result no (0)

## Task For this compound, state the assay outcome: NC1(CO)COC(c2ccccc2)OC1 (stereo unspecified)
## Result no (0)

## Task For this compound, state the assay outcome: COc1ccc(Nc2nc(Nc3cc(C)[nH]n3)c3cc(OC)c(OC)cc3n2)cc1
## Result yes (1)

## Task For this compound, state the assay outcome: CNC(=O)c1cccnc1
## Result no (0)

## Task For this compound, state the assay outcome: COc1ncc(-c2ccc3ncnc(Nc4cccc(Cl)c4)c3c2)cc1N(S(C)(=O)=O)S(C)(=O)=O
## Result no (0)

## Task For this compound, state the assay outcome: CCCCCCC(C)(O)c1ccccc1 (stereo unspecified)
## Result no (0)

## Task For this compound, state the assay outcome: CN(C)c1ccc(/C=N\Nc2cc(=O)[nH]c3ccc(Cl)cc23)cc1
## Result no (0)

## Task For this compound, state the assay outcome: COc1ccc(CN2c3ccccc3CCc3ccccc32)cc1F
## Result yes (1)

###

System: NCI/ADR-RES ovarian
Experiment: NCI-60 one-dose screen, 48 h (100 = growth as untreated, 0 = no growth, -100 = all killed)
Conditions: 10 µM unless noted
This is part of a sample that, as a whole, favours compounds with a hit. Of some 83,000 tested, about 20% had one in any assay.
Parameter threshold = 60%. Response is True when growth meets or exceeds it, else False.

The following compounds have reported results that may help.
compound	class-label
COc1ccc(C(=O)c2ccc([As]=O)cc2)cc1 (stereo not drawn)	False
CNC(=O)Oc1ccccc1-c1ccccc1	True
O=S(=O)(F)c1ncnc2nc[nH]c12	True

## Task Quick check, growth >= 60%? CCOC(=O)C1(c2ccccc2)CCN(CC(=O)c2ccc(NC(C)=O)cc2)CC1
## Result True

## Task Quick check, growth >= 60%? Cc1nnc([S-])s1.[Au+].c1ccc([PH+](c2ccccc2)c2ccccc2)cc1
## Result True

## Task Quick check, growth >= 60%? CCOc1cc(C=C(C#N)C#N)cc(Br)c1O
## Result True

## Task Quick check, growth >= 60%? N#[N+]c1cnc([O-])[nH]c1=O
## Result False

###

System: HL-60(TB) leukemia
Experiment: NCI-60 one-dose screen, 48 h
Conditions: 10 µM unless noted
Compounds without any hit were thinned out: in the full panel of roughly 83,000, 20% have a hit. Calls of active or inactive are those of the source. The calls were made as follows: active = growth percent below 10; inactive = the rest.
Outcome (select one): label 1 for active, label 0 for inactive

compound	class-label
COC1=CC(=O)C(OC)=C(O)C1=O	label 0

## Task For this compound, state the assay outcome: CCOC(=O)C1C(=O)OC2CCCCC21 (configuration not stated)
## Result label 0

## Task For this compound, state the assay outcome: Clc1ccc2nc3nc4ccc[nH]c4cc3c2c1
## Result label 0

## Task For this compound, state the assay outcome: CCCCCC/C=N/Nc1ccc([N+](=O)[O-])cn1
## Result label 0

## Task For this compound, state the assay outcome: COC(=O)Nc1nc2ccc(C(=O)c3ccc(N(C)C4COC4)cc3)cc2[nH]1
## Result label 1

## Task For this compound, state the assay outcome: O=[N+]([O-])c1cc(S(=O)(=O)Nc2ccccc2)ccc1Cl
## Result label 0
